Data provenance is patent US20210299079A1.

- Tested on: MIP-1β
- test.summary: Neutrophil Chemokine Production Assay: MIP-1β
- Format: cell-based
- settings: human neutrophils, 12 h, Conc. 500.0 μM
parameter: % MIP-1β (DMSO + LPS = 100%)

1) CCC(=O)O [propionate]    +++ (+++ = <50% Vehicle)
2) C[C@@H](O)CCO [(R) 1,3-butanediol]    + (+ = <90% Vehicle)
3) CCCC(=O)O [butyrate]    +++ (+++ = <50% Vehicle)
4) CC(=O)O [acetate]    + (+ = <90% Vehicle)

====

- System: IL-1β
- test.summary: Cytokine Release from Human PBMCs: IL-1β
- Format: cell-based
- settings: LPS, 24 hours, Concentration 100 μM
parameter: IL1β % DMSO control

1. Oc1ccc(C=Cc2cc(O)cc(O)c2)cc1 [resveratrol]    = ((=) 90% > <110% DMSO)
2. CC(=O)O [acetate]    = ((=) 90% > <110% DMSO)
3. O=C[C@H](O)[C@@H](O)[C@@H](O)CO [L-arabinose]    = ((=) 90% > <110% DMSO)
4. CC(O)CC(=O)O (stereo not drawn) [β-hydroxybutyrate]    − ((−) >110% DMSO)
5. C[C@@H](O)CCO [(R) 1,3-butanediol]    = ((=) 90% > <110% DMSO)
6. CCC(=O)O [propionate]    + ((+) 50% > <90% DMSO)
7. O=c1c(O)c(-c2ccc(O)c(O)c2)oc2cc(O)cc(O)c12 [quercetin]    + ((+) 50% > <90% DMSO)

Now examine the next entry.
Ask: Observed IL1β % DMSO control on IL-1β for CCCC(=O)O [butyrate] , please.
Reply: − ((−) >110% DMSO)
